- Test system: Malme-3M
- Assay name: NCI tumour cell line growth inhibition, 48 h
Activity calls are given as the source filed them. Rule as the data show it: active = GI50 up to about 1.1 µM and inactive = higher.
Measurement kind: GI50

CC(C)(C)CC(C)(C)c1cc2c(O)c(c1)Cc1cc(C(C)(C)CC(C)(C)C)cc(c1O)Cc1cc(C(C)(C)CC(C)(C)C)cc(c1O)Cc1cc(C(C)(C)CC(C)(C)C)cc(c1O)C2 = > 100 µM (inactive)

The reported value for C=CCC1=CC2(OC)C(=O)C(OC)(OC)C1C1C(OC)(OC)C(=O)C(OC)=CC12CC=C (centres undefined) in terms of GI50 is > 100 µM (inactive)

The reported value for Nc1nc(Nc2ccccc2)sc1C(=O)c1ccco1 in terms of GI50 is 26.9 µM (inactive)

The reported value for COC(=O)[C@H](NC(=O)OC(C)(C)C)[C@H]1COC(C)(C)O1 in terms of GI50 is 40.1 µM (inactive)

====

- Test system: HOP-92
- Assay name: NCI tumour cell line growth inhibition, 48 h
Activity calls are given as the source filed them. Cut-off read from the data, not from the text of the source: active = GI50 up to about 1.1 µM and inactive = higher.
Measurement kind: GI50

Cn1c(=O)c2c(nc3n2CC(C(=O)O)N3)n(C)c1=O (stereo not given) = > 100 µM (inactive)

Observed GI50 on HOP-92, entry CC(C)(C)c1ccc(-c2nnc(SCc3ccc(Cl)cc3)n2-c2cccc(C(F)(F)F)c2)cc1 , equals 19.8 µM (inactive)

Observed GI50 on HOP-92, entry Cc1ccc2c3c(cnc2n1)C(=O)OCCN3C , equals > 100 µM (inactive)

Observed GI50 on HOP-92, entry CC(C)c1cccc(C(C)C)c1NC(=O)C(=O)C(C(=O)c1ccc2ccccc2c1)C1OC(=O)c2ccccc21 (stereo not given) , equals 27.9 µM (inactive)

Observed GI50 on HOP-92, entry COc1c(Cl)ccc(Cl)c1-c1nnc(-c2c(Cl)c(Cl)c(Cl)c(Cl)c2-c2nc3cc(C(=O)c4ccccc4)ccc3[nH]2)o1 , equals 53.7 µM (inactive)

====

- Test system: SNB-75
- Assay name: NCI tumour cell line growth inhibition, 48 h
Activity calls are given as the source filed them. Rule as the data show it: active = GI50 up to about 1.1 µM and inactive = higher.
Field 'call' accepts active, inactive

Assay result, entry COC1(OC)CC2OC1C1N=NN(C(=O)OC(C)(C)C)C21 (stereo unspecified) — outcome?
inactive

Assay result, entry Nc1nnc(O)c2c1c(I)cn2C1OC(CO)C(O)C1O (stereo unspecified) — outcome?
active

Assay result, entry O=C1C(=O)N(C(=O)c2ccc(Cl)c(Cl)c2)c2ccccc21 — outcome?
inactive

Assay result, entry c1ccc2c(c1)[nH]c1c3ccccc3sc21 — outcome?
inactive

Assay result, entry NCC(O)CNC(=O)c1ccc(-c2ccc(-c3ccc(C(=O)NCC(O)CN)cc3)o2)cc1 (stereo unspecified) — outcome?
inactive

Assay result, entry O=C(O)c1ccccc1/N=N/c1c(O)c(S(=O)(=O)O)cc2cc(S(=O)(=O)O)ccc12 — outcome?
inactive

Assay result, entry CCN(CC)CCN1C=CC(C)C(C(=O)O)C1C(N)=O (stereo unspecified) — outcome?
inactive

Assay result, entry CCOC(=O)C1C(=O)C(C(=O)OCC)C(c2ccccc2)N(C)C1c1ccccc1 (stereo unspecified) — outcome?
inactive

Assay result, entry OC(c1ccc(-c2ccccc2)cc1)C(F)(F)c1nc2ccccc2o1 (stereo unspecified) — outcome?
inactive

Assay result, entry CCCCCC(=O)Nc1[nH]cnc1C(N)=O — outcome?
inactive

Assay result, entry N=C1N(c2ccccc2)C(=O)C23CCCC2C13N1CCOCC1 (stereo unspecified) — outcome?
inactive

====

- System: LOX IMVI
- Assay name: NCI tumour cell line growth inhibition, 48 h
Active and inactive are the calls of the source. No stated cut-off is given here; in the data, active = GI50 up to about 1.1 µM and inactive = higher.
Field 'call' accepts active, inactive

Worked cases, answers included:
O=C1/C(=C/c2ccc(O)cc2)CCC1CNc1ccc(Cl)cc1 (stereo not given) = active
O=C1CCNC(=O)NC1 = inactive
COc1ccc(NCc2cc(OC)cc(OC)c2)cc1 = inactive
CCCCCCCCCCCCCCCCc1c(O)nc(NN)nc1C(=O)OC = inactive
COCC1OCCN1C (stereo not given) = inactive

Assay result, entry Cc1cc(Br)ccc1/N=N/c1c(C)nn(-c2ccccc2)c1-c1ccccc1 — outcome?
inactive

Assay result, entry COc1cccc2c1C(=O)c1c(O)c3c(c(O)c1C2=O)C[C@@](O)(C(=O)CO)C[C@@H]3OC1CC(N(C)C)C(O)C(C)O1 (stereo not given in full) — outcome?
active

Assay result, entry S=C1NCCN1 — outcome?
inactive

Assay result, entry NCC(O)CNC(=O)c1ccc(-c2ccc(-c3ccc(C(=O)NCC(O)CN)cc3)o2)cc1 (stereo not given) — outcome?
inactive

Assay result, entry O=C(Oc1cccnc1)c1cc2cc(CCl)ccc2oc1=O — outcome?
inactive

Assay result, entry Cc1c/c(=N/NC(=O)c2ccncc2)n2nc(N)sc2n1 — outcome?
inactive

Assay result, entry COC(=O)C1(NC(=O)C(N)CC(=O)O)C(C)C1C (stereo not given) — outcome?
inactive

Assay result, entry Cc1cc(C)c(-n2[nH]c(=O)n(C)c2=O)c(C)c1 — outcome?
inactive

Assay result, entry Cc1cc2c3c(c1)CCCN3CCC2 — outcome?
inactive

Assay result, entry Cc1ccc(SSCCCCS(=O)O)cc1 — outcome?
inactive

Assay result, entry C/C(=N\NC(=S)N1CCN(c2ccccn2)CC1)c1nccs1 — outcome?
active

Assay result, entry C/C(CC(=O)Nc1ccc(C)cc1)=N\NC(N)=S — outcome?
inactive

Assay result, entry CCOC(=O)C(=O)Nc1c(CC)cccc1C(C)CC (stereo not given) — outcome?
inactive

Assay result, entry CC(CCN)(CCN)[N+](=O)[O-] — outcome?
inactive

Assay result, entry O=C1OC(Cl)C(N=P(c2ccccc2)(c2ccccc2)c2ccccc2)=C1Cl (stereo not given) — outcome?
inactive

Assay result, entry NCCSc1nc(-c2ccccc2)c(-c2ccccc2)o1 — outcome?
inactive

Assay result, entry CC1=C2C(=O)OCC23C=COC3(C)O1 (stereo not given) — outcome?
inactive

Assay result, entry CC(=O)/C(=C/n1ccc(=O)[nH]c1=S)C(=O)Nc1ccccc1C — outcome?
inactive

Assay result, entry NCc1ccccc1-c1c2nc(c(-c3ccccc3CN)c3ccc([nH]3)c(-c3ccccc3CN)c3nc(c(-c4ccccc4CN)c4ccc1[nH]4)C=C3)C=C2 — outcome?
inactive

====

GI50 values by entry
- System: HOP-62
- Assay name: NCI tumour cell line growth inhibition, 48 h
Calls of active or inactive are those of the source. No stated cut-off is given here; in the data, active = GI50 up to about 1.1 µM and inactive = higher.

Illustrative cases are given below, each with its answer.
CC(C)C[C@H](NC(=O)[C@H](Cc1cccc2ccccc12)NS(=O)(=O)c1cccc2cccnc12)B(O)O = 0.0444 µM (active)
O=[N+]([O-])c1cc2c(cc1/C=N/n1c(CO)nc3ccccc31)OCO2 = > 100 µM (inactive)
COC12c3ccccc3-c3ccccc3C1[C@H]1C(=O)OC(=O)[C@H]12 (stereo partly specified) = > 10 µM (inactive)
O=NC1C(Cl)C2CC1C1C(Br)C(Br)CC21 (stereo unspecified) = > 100 µM (inactive)

The reported value for NS(=O)(=O)c1nnc(NC(=O)/C=C/C(=O)O)s1 in terms of GI50 is > 100 µM (inactive)

The reported value for O=S1(=O)C[C@H](NCc2ccccc2)[C@H](NCc2ccccc2)C1 in terms of GI50 is > 100 µM (inactive)

====

- System: XF498
- Assay name: NCI tumour cell line growth inhibition, 48 h
The source made the active and inactive calls. No stated cut-off is given here; in the data, active = GI50 up to about 1.1 µM and inactive = higher.
Field 'call' accepts true (1) (active), false (0) (inactive)

CS(=O)(=O)OC1CCC2(C#N)CCC1C2=O (stereo not drawn) = false (0)
c1ccc(SCCP(CCP(c2ccccc2)c2ccccc2)c2ccccc2)cc1 (stereo not drawn) = false (0)
Cc1cccc(C(C)(C)C)c1NC(=O)CCl = false (0)

Assay result, entry Nc1nnc(O)c2c1c(I)cn2C1OC(CO)C(O)C1O (stereo not drawn) — outcome?
false (0)

Assay result, entry COC(=O)C1=C(C)N(NC(=O)c2ccccc2)C(C)(O)C12CCOC2=O (stereo not drawn) — outcome?
false (0)

Assay result, entry CC(C)[Si](OCC1CC(C#N)OC(C)(C)O1)(C(C)C)C(C)C (stereo not drawn) — outcome?
false (0)

Assay result, entry Nc1nc2c3nc(Nc4ccccc4)sc3nc(=O)n2c2sc(Nc3ccccc3)nc12 — outcome?
false (0)

====

- Test system: M14
- Assay name: NCI tumour cell line growth inhibition, 48 h
Calls of active or inactive are those of the source. Rule as the data show it: active = GI50 up to about 1.1 µM and inactive = higher.
Field 'call' accepts active, inactive

Worked cases, answers included:
CCOC(=O)Nc1c(C#N)[n+]([O-])c2cc(Cl)c(Cl)cc2[n+]1[O-] = inactive
CC1=NN(c2ccc(S(=O)(=O)O)cc2)C(=O)/C1=C/c1ccc(Cl)cc1.c1ccncc1 = inactive
CC(=O)N(CCc1ccccc1)C(C)(C#N)c1ccccc1 (stereo not given) = inactive

Assay result, entry C/C(CC(=O)Nc1ccc(C)cc1)=N\NC(N)=S — outcome?
inactive

Assay result, entry O=c1c2ccccc2nc(N/N=C/c2ccc([N+](=O)[O-])cc2)n1-c1ccccc1 — outcome?
inactive
